Origin of measurements: patent US20070167466A1

tested target: CDK2 (p33^cdk2, cyclin E) (Homo sapiens)
method: CDK inhibition assay, p33^cdk2 kinase, histone H1 phosphorylation
Friendly reminder: IC50 below 6 µM is Y, at or above is N.

compound	class name
CCCCCNc1ncnc2c(C(C)C)n[nH]c12	Y
Cc1n[nH]c2c(NCc3cccc(O)c3)ncnc12 [3-hydroxybenzylamino / methyl]	N
Cc1n[nH]c2c(NC3CCCC3)ncnc12	N
Cc1n[nH]c2c(NCc3ccco3)ncnc12	N
Cc1ccccc1CNc1ncnc2c(C)n[nH]c12	N
CC(C)c1n[nH]c2c(Nc3cc(N)cc(Cl)c3)ncnc12	Y
CC(C)c1n[nH]c2c(Nc3ccc(C(=O)O)c(Cl)c3)ncnc12	Y
CC(C)=CCNc1ncnc2c(C(C)C)n[nH]c12	Y

Ask: Field: below-cutoff. Rule: recorded IC50 strictly less than 6 µM. Subject: CC(C)c1n[nH]c2c(Nc3ccc(N)c(Cl)c3)ncnc12
Result: Y

Ask: Field: below-cutoff. Rule: recorded IC50 strictly less than 6 µM. Subject: CCc1n[nH]c2c(NCc3ccc(Cl)cc3)ncnc12
Result: N

###

Quick note: these are IC50 numbers for system: MMK1 protein kinase (Vicia faba, UniProt A0AAV1B7B8)
Sequence (A0AAV1B7B8 entry or part of it): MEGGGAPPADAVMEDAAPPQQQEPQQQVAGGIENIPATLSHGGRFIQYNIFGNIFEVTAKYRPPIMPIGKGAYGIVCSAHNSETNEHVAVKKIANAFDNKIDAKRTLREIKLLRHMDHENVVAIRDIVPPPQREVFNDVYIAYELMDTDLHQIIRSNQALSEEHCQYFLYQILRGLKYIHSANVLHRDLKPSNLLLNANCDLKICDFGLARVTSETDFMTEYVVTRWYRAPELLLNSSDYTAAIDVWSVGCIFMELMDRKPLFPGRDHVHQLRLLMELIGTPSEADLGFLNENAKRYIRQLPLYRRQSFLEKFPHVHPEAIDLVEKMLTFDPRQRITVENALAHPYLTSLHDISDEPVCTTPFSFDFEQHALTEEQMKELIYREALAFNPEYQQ
Hi! Could you send only the number? It should be in µM, unit omitted.

# example entries with known answers
query smiles	measured quantity	unit string	recorded result
Cc1n[nH]c2c(NCc3ccccc3Cl)ncnc12	IC50	µM	25
Cc1n[nH]c2c(Nc3ccc(N)c(Cl)c3)ncnc12	IC50	µM	32

Ask: Give IC50 for CC(C)c1n[nH]c2c(Nc3ccc(Cl)c(C(=O)O)c3)ncnc12 tested on MMK1 protein kinase (Vicia faba, UniProt A0AAV1B7B8).
Result: 1.7

Ask: Give IC50 for Cc1n[nH]c2c(Nc3cccc(Cl)c3)ncnc12 tested on MMK1 protein kinase (Vicia faba, UniProt A0AAV1B7B8).
Result: 9.6

###

IC50 values for the compounds below.
tested target: CDK2 (p33^cdk2, cyclin E) (Homo sapiens, UniProt P24941)
method: CDK inhibition assay, p33^cdk2 kinase, histone H1 phosphorylation
Hi! Could you send only the number? It should be in µM, unit omitted.

Ask: Give me measured IC50, please, for this compound: Cc1n[nH]c2c(Nc3ccc(C(=O)O)c(Cl)c3)ncnc12
Result: 28

Ask: Give me measured IC50, please, for this compound: CC(C)c1n[nH]c2c(Nc3ccc(Cl)c(N)c3)ncnc12
Result: 3

Ask: Give me measured IC50, please, for this compound: CCc1n[nH]c2c(Nc3cc(N)cc(Cl)c3)ncnc12
Result: 15.5

###

tested target: CDC2a (cdc2a-MS protein, plant Cdc2-kinase) (Medicago sativa, UniProt P24923)
Sequence (P24923 whole entry): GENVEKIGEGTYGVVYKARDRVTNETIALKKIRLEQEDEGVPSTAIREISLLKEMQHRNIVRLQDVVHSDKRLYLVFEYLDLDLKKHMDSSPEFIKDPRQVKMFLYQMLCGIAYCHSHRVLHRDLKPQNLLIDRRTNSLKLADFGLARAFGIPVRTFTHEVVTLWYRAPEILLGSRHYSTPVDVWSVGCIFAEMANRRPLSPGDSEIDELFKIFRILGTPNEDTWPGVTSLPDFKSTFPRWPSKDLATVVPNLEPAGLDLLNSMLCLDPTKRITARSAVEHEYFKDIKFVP
Format: biochemical
measured quantity: pIC50
The scale used: pIC50 is minus the common logarithm of the concentration in molar units.

query smiles	pIC50
CC(C)c1n[nH]c2c(Nc3ccc(Cl)c(C(=O)O)c3)ncnc12	5.80
Cc1n[nH]c2c(Nc3ccc(N)c(Cl)c3)ncnc12	4.52

Ask: Give me measured pIC50, please, for this compound: Cc1n[nH]c2c(Nc3cccc(Cl)c3)ncnc12
Result: 5.00

###

IC50 values for the molecules below.
tested target: CDK2 (p33^cdk2, cyclin E) (Homo sapiens, UniProt P24941)
method: CDK inhibition assay, p33^cdk2 kinase, histone H1 phosphorylation;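 note: Baculovirus-expressed kinase/cyclin complex from Sf9 cell extract, 10 min at 30 °C, phosphoproteins separated by SDS gel and quantified by image analysis, activity relative to DMSO control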
Write the figure, then the unit, nothing else.

molecule	recorded result
CC(C)c1n[nH]c2c(NCc3ccccc3)ncnc12	0.5 µM
CC(C)c1n[nH]c2c(Nc3cccc(Cl)c3)ncnc12	0.8 µM
Cc1n[nH]c2c(Nc3ccc(Cl)c(C(=O)O)c3)ncnc12	29 µM
Cc1n[nH]c2c(NCc3ccc(Cl)cc3)ncnc12	18 µM
CC(C)c1n[nH]c2c(NCc3ccccc3Br)ncnc12	9 µM
Cc1n[nH]c2c(Nc3ccc(O)c(C(=O)O)c3)ncnc12 [3-carboxy-4-hydroxyanilino / methyl]	40 µM
CC(C)c1n[nH]c2c(Nc3ccc(Br)cc3)ncnc12	1.9 µM

Ask: Give me measured IC50, please, for this molecule: CCc1n[nH]c2c(NCc3ccccc3Cl)ncnc12
Result: 12 µM

###

Test system: MCF7 (human breast adenocarcinoma)
method: In vitro cytotoxic activity, Calcein AM, three days
Type: cell-based
details: Homo sapiens, MCF7, 72 h
Records here are stratified by IC50; strata: bucket 1 = under 30 µM, bucket 2 = from 30 µM up to 70 µM, bucket 3 = 70 µM and over

compound	tested target	class name
CCCCCNc1ncnc2c(C(C)C)n[nH]c12	MCF7 (human breast adenocarcinoma)	bucket 2
Cc1n[nH]c2c(NCc3ccccc3O)ncnc12 [2-hydroxybenzylamino / methyl]	MCF7 (human breast adenocarcinoma)	bucket 2
Cc1n[nH]c2c(NCc3cccc(O)c3)ncnc12 [3-hydroxybenzylamino / methyl]	MCF7 (human breast adenocarcinoma)	bucket 3
CC(C)c1n[nH]c2c(NCc3cccc(O)c3)ncnc12 [3-hydroxybenzylamino / isopropyl]	MCF7 (human breast adenocarcinoma)	bucket 3

Ask: Hi there! Could you help me figure out the category for CC(C)c1n[nH]c2c(Nc3cc(N)cc(Cl)c3)ncnc12 please?
Result: bucket 1

Ask: Hi there! Could you help me figure out the category for CC(C)c1n[nH]c2c(NCc3ccccc3Cl)ncnc12 please?
Result: bucket 1

Ask: Hi there! Could you help me figure out the category for Cc1n[nH]c2c(NC3CCC3)ncnc12 please?
Result: bucket 3

Ask: Hi there! Could you help me figure out the category for CCc1n[nH]c2c(Nc3cccc(Cl)c3)ncnc12 please?
Result: bucket 1

Ask: Hi there! Could you help me figure out the category for Cc1ccccc1CNc1ncnc2c(C(C)C)n[nH]c12 please?
Result: bucket 2

Ask: Hi there! Could you help me figure out the category for CC(C)c1n[nH]c2c(Nc3ccc(C(=O)O)c(Cl)c3)ncnc12 please?
Result: bucket 2

###

Tested on: K562 (human chronic myeloblastic leukemia)
method: In vitro cytotoxic activity, Calcein AM, three days
Assay type: cell-based
details: read-out: K-562 IC50
measured quantity: IC50
Write the figure, then the unit, nothing else.

query smiles	tested target	IC50
Cc1n[nH]c2c(NCc3ccccc3)ncnc12	K562 (human chronic myeloblastic leukemia)	29 µM
CC(C)c1n[nH]c2c(Nc3ccc(Cl)c(C(=O)O)c3)ncnc12	K562 (human chronic myeloblastic leukemia)	1 µM
CCc1n[nH]c2c(NCc3ccccc3Br)ncnc12	K562 (human chronic myeloblastic leukemia)	60 µM

Moving on to another compound below.
Ask: Give me measured IC50, please, for this compound: COc1cccc(CNc2ncnc3c(C(C)C)n[nH]c23)c1O
Result: 0.8 µM

###

Test system: MCF7 (human breast adenocarcinoma)
method: In vitro cytotoxic activity, Calcein AM, three days
Assay type: cell-based
details: Homo sapiens, MCF7, 72 h
measured quantity: IC50
Write the figure, then the unit, nothing else.

# example entries with known answers
molecule	IC50
CC(C)c1n[nH]c2c(NCc3ccccc3O)ncnc12 [2-hydroxybenzylamino / isopropyl]	63 µM
CC(C)c1n[nH]c2c(Nc3ccc(Cl)c(N)c3)ncnc12	0.2 µM
CC(C)c1n[nH]c2c(Nc3ccc(O)c(C(=O)O)c3)ncnc12 [3-carboxy-4-hydroxyanilino / isopropyl]	12 µM
CC(C)c1n[nH]c2c(Nc3cccc(Cl)c3)ncnc12	9 µM
CCc1n[nH]c2c(NCc3ccccc3)ncnc12	62 µM

Ask: Give me measured IC50, please, for this molecule: CC(C)c1n[nH]c2c(NC3CCCCC3)ncnc12
Result: 95 µM

Ask: Give me measured IC50, please, for this molecule: CCc1n[nH]c2c(NCc3ccccc3O)ncnc12 [2-hydroxybenzylamino / ethyl]
Result: 63 µM

Ask: Give me measured IC50, please, for this molecule: Cc1n[nH]c2c(NCc3ccco3)ncnc12
Result: 142 µM

###

Quick note: these are pIC50 numbers for system: CDK1 (p34^cdc2, cyclin B) (Homo sapiens)
Sequence (P06493 whole entry, species assumed): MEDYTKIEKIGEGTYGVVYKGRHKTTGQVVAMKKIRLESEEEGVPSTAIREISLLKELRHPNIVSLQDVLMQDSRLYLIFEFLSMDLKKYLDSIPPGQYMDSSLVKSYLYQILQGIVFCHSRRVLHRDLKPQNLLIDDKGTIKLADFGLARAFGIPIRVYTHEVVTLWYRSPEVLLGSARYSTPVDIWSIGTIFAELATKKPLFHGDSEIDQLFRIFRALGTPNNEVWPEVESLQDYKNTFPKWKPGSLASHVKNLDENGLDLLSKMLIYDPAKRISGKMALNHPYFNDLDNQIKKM
Sequence (P14635 whole entry partner, species assumed): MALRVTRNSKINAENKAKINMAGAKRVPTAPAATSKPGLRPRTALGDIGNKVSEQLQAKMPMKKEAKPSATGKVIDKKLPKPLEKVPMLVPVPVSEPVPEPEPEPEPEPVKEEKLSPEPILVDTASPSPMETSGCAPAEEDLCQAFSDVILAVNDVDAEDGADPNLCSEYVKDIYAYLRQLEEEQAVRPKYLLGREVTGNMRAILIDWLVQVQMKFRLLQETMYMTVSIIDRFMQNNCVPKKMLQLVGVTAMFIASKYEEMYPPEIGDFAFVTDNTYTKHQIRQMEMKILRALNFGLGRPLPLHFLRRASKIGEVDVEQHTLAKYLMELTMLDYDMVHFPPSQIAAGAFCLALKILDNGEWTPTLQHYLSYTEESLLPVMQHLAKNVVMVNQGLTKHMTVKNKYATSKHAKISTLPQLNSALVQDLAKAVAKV
The scale used: pIC50 is minus the common logarithm of the concentration in molar units.

Ask: Give pIC50 for CC(C)c1n[nH]c2c(NCc3ccccc3O)ncnc12 [2-hydroxybenzylamino / isopropyl] tested on CDK1 (p34^cdc2, cyclin B) (Homo sapiens).
Result: 6.40

Ask: Give pIC50 for Cc1ccccc1CNc1ncnc2c(C(C)C)n[nH]c12 tested on CDK1 (p34^cdc2, cyclin B) (Homo sapiens).
Result: 5.70

Ask: Give pIC50 for Cc1n[nH]c2c(Nc3cccc(Cl)c3)ncnc12 tested on CDK1 (p34^cdc2, cyclin B) (Homo sapiens).
Result: 4.85

Ask: Give pIC50 for Cc1n[nH]c2c(Nc3ccc(Cl)cc3)ncnc12 tested on CDK1 (p34^cdc2, cyclin B) (Homo sapiens).
Result: 4.59

Ask: Give pIC50 for CCc1n[nH]c2c(NC3CCCCC3)ncnc12 tested on CDK1 (p34^cdc2, cyclin B) (Homo sapiens).
Result: 4.41

Ask: Give pIC50 for CCc1n[nH]c2c(NCc3ccccc3C)ncnc12 tested on CDK1 (p34^cdc2, cyclin B) (Homo sapiens).
Result: 4.82

Ask: Give pIC50 for CC(C)c1n[nH]c2c(Nc3ccc(N)c(Cl)c3)ncnc12 tested on CDK1 (p34^cdc2, cyclin B) (Homo sapiens).
Result: 5.54

Ask: Give pIC50 for CC(C)c1n[nH]c2c(Nc3cccc(Cl)c3)ncnc12 tested on CDK1 (p34^cdc2, cyclin B) (Homo sapiens).
Result: 5.70

Ask: Give pIC50 for CCc1n[nH]c2c(Nc3cccc(Cl)c3)ncnc12 tested on CDK1 (p34^cdc2, cyclin B) (Homo sapiens).
Result: 4.62
